SYSTEM_TESTED: T1, RSV postfusion F (postF), subtype B (respiratory syncytial virus, subtype B)
T1 construct: also called F ΔFP; Postfusion subtype B
ASSAY_METHOD_TEXT: BLI, IgG
MEASURED_PARAMETER: Kd

Name the recorded Kd of the binder listed here: ADI-21026 (antibody, V domains shown) VH: QVQLVQSGPGLVKPSQTLSLTCTVSGVSISSGGFYWSWIRQHPGKGLEWIGHIYYSRSTYYNPSLKSRVTMSLNMSKNQFSLRLSSVTAADTAVYYCARERREWLHGELDYWGQGTTVTVSS VL: DIQMTQSPDSLAVSLGEGATINCKSSQSVLDSSKNKNYLAWYQQRPGQPPKLLISWASTRESGVPDRFSGSGSGTDFTLTISSLQAEDVAVYSCQQYFSPPATFGQGTKLEIK
1.43 nM

Name the recorded Kd of the binder listed here: ADI-21042 (antibody, V domains shown, also called Ab 290) VH: EVQLVESGPRLVKPSQTLSLTCNVSGVPVNTGGYYWSWIRRHPIKGLEWIGYIYYSGSTHYNPSLRGRATMSVDTSKNQFSLRLSSVTAADTAVYYCAKDTITVLRGVAKKGVFDPWGQGILVTVSS VL: DIQMTQSPSTLSASVGDRVIITCRASQSISSWLAWYQYKPGKAPNLLIYKATTLDSGVPSRFSGSGSGTEFTLTISSLQPDDFATYYCQQYDSYPTFGQGTKVEIK
0.398 nM

Source listed as patent US20260258115A1.
